B1: library; a variant is named by its letters at N, in order (parent)
chain: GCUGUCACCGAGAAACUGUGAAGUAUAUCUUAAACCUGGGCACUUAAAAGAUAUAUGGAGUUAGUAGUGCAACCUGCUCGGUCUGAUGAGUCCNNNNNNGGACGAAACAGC

- Variants of: B1
- assay_comment: normalized RNA/DNA level without ligand (relative to sTRSVctl = 100) (log10 (% of sTRSVctl)); HEK293T; ligand: cyclic di-GMP (c-di-GMP-II aptamer); higher = less ribozyme self-cleavage, higher mRNA level
- study_conditions: reporter: mCherry (pCS4076), ligand present: no
readout: normalized RNA/DNA level without ligand (log10)

seq: GCUGUCACCGAGAAACUGUGAAGUAUAUCUUAAACCUGGGCACUUAAAAGAUAUAUGGAGUUAGUAGUGCAACCUGCUCGGUCUGAUGAGUCCACACCAGGACGAAACAGC [ACACCA]
recorded_measurement: 1.59

seq: GCUGUCACCGAGAAACUGUGAAGUAUAUCUUAAACCUGGGCACUUAAAAGAUAUAUGGAGUUAGUAGUGCAACCUGCUCGGUCUGAUGAGUCCAGAGAAGGACGAAACAGC [AGAGAA]
recorded_measurement: 1.33

seq: GCUGUCACCGAGAAACUGUGAAGUAUAUCUUAAACCUGGGCACUUAAAAGAUAUAUGGAGUUAGUAGUGCAACCUGCUCGGUCUGAUGAGUCCAUAUAAGGACGAAACAGC [AUAUAA]
recorded_measurement: 1.5

seq: GCUGUCACCGAGAAACUGUGAAGUAUAUCUUAAACCUGGGCACUUAAAAGAUAUAUGGAGUUAGUAGUGCAACCUGCUCGGUCUGAUGAGUCCCCGUUGGGACGAAACAGC [CCGUUG]
recorded_measurement: 1.28

seq: GCUGUCACCGAGAAACUGUGAAGUAUAUCUUAAACCUGGGCACUUAAAAGAUAUAUGGAGUUAGUAGUGCAACCUGCUCGGUCUGAUGAGUCCAGGUCCGGACGAAACAGC [AGGUCC]
recorded_measurement: 1.86

seq: GCUGUCACCGAGAAACUGUGAAGUAUAUCUUAAACCUGGGCACUUAAAAGAUAUAUGGAGUUAGUAGUGCAACCUGCUCGGUCUGAUGAGUCCGCGGGUGGACGAAACAGC [GCGGGU]
recorded_measurement: 1.77

seq: GCUGUCACCGAGAAACUGUGAAGUAUAUCUUAAACCUGGGCACUUAAAAGAUAUAUGGAGUUAGUAGUGCAACCUGCUCGGUCUGAUGAGUCCUUGGAUGGACGAAACAGC [UUGGAU]
recorded_measurement: 1.63

seq: GCUGUCACCGAGAAACUGUGAAGUAUAUCUUAAACCUGGGCACUUAAAAGAUAUAUGGAGUUAGUAGUGCAACCUGCUCGGUCUGAUGAGUCCCACCCUGGACGAAACAGC [CACCCU]
recorded_measurement: 1.65

seq: GCUGUCACCGAGAAACUGUGAAGUAUAUCUUAAACCUGGGCACUUAAAAGAUAUAUGGAGUUAGUAGUGCAACCUGCUCGGUCUGAUGAGUCCACAUUUGGACGAAACAGC [ACAUUU]
recorded_measurement: 1.42

seq: GCUGUCACCGAGAAACUGUGAAGUAUAUCUUAAACCUGGGCACUUAAAAGAUAUAUGGAGUUAGUAGUGCAACCUGCUCGGUCUGAUGAGUCCAAAAAGGGACGAAACAGC [AAAAAG]
recorded_measurement: 1.45

seq: GCUGUCACCGAGAAACUGUGAAGUAUAUCUUAAACCUGGGCACUUAAAAGAUAUAUGGAGUUAGUAGUGCAACCUGCUCGGUCUGAUGAGUCCCCGGGCGGACGAAACAGC [CCGGGC]
recorded_measurement: 1.82

seq: GCUGUCACCGAGAAACUGUGAAGUAUAUCUUAAACCUGGGCACUUAAAAGAUAUAUGGAGUUAGUAGUGCAACCUGCUCGGUCUGAUGAGUCCCGGUGUGGACGAAACAGC [CGGUGU]
recorded_measurement: 1.68

seq: GCUGUCACCGAGAAACUGUGAAGUAUAUCUUAAACCUGGGCACUUAAAAGAUAUAUGGAGUUAGUAGUGCAACCUGCUCGGUCUGAUGAGUCCUUGACUGGACGAAACAGC [UUGACU]
recorded_measurement: 1.75

seq: GCUGUCACCGAGAAACUGUGAAGUAUAUCUUAAACCUGGGCACUUAAAAGAUAUAUGGAGUUAGUAGUGCAACCUGCUCGGUCUGAUGAGUCCUCCGCCGGACGAAACAGC [UCCGCC]
recorded_measurement: 1.75

seq: GCUGUCACCGAGAAACUGUGAAGUAUAUCUUAAACCUGGGCACUUAAAAGAUAUAUGGAGUUAGUAGUGCAACCUGCUCGGUCUGAUGAGUCCUGAUGCGGACGAAACAGC [UGAUGC]
recorded_measurement: 1.75

seq: GCUGUCACCGAGAAACUGUGAAGUAUAUCUUAAACCUGGGCACUUAAAAGAUAUAUGGAGUUAGUAGUGCAACCUGCUCGGUCUGAUGAGUCCACACAGGGACGAAACAGC [ACACAG]
recorded_measurement: 1.44

seq: GCUGUCACCGAGAAACUGUGAAGUAUAUCUUAAACCUGGGCACUUAAAAGAUAUAUGGAGUUAGUAGUGCAACCUGCUCGGUCUGAUGAGUCCGAGAUGGGACGAAACAGC [GAGAUG]
recorded_measurement: 1.75

seq: GCUGUCACCGAGAAACUGUGAAGUAUAUCUUAAACCUGGGCACUUAAAAGAUAUAUGGAGUUAGUAGUGCAACCUGCUCGGUCUGAUGAGUCCACUCCCGGACGAAACAGC [ACUCCC]
recorded_measurement: 1.77

seq: GCUGUCACCGAGAAACUGUGAAGUAUAUCUUAAACCUGGGCACUUAAAAGAUAUAUGGAGUUAGUAGUGCAACCUGCUCGGUCUGAUGAGUCCAACCGCGGACGAAACAGC [AACCGC]
recorded_measurement: 1.72

seq: GCUGUCACCGAGAAACUGUGAAGUAUAUCUUAAACCUGGGCACUUAAAAGAUAUAUGGAGUUAGUAGUGCAACCUGCUCGGUCUGAUGAGUCCUGAAUCGGACGAAACAGC [UGAAUC]
recorded_measurement: 1.72

seq: GCUGUCACCGAGAAACUGUGAAGUAUAUCUUAAACCUGGGCACUUAAAAGAUAUAUGGAGUUAGUAGUGCAACCUGCUCGGUCUGAUGAGUCCCUUUCUGGACGAAACAGC [CUUUCU]
recorded_measurement: 1.65

seq: GCUGUCACCGAGAAACUGUGAAGUAUAUCUUAAACCUGGGCACUUAAAAGAUAUAUGGAGUUAGUAGUGCAACCUGCUCGGUCUGAUGAGUCCGCAGUUGGACGAAACAGC [GCAGUU]
recorded_measurement: 1.45

seq: GCUGUCACCGAGAAACUGUGAAGUAUAUCUUAAACCUGGGCACUUAAAAGAUAUAUGGAGUUAGUAGUGCAACCUGCUCGGUCUGAUGAGUCCGCACGCGGACGAAACAGC [GCACGC]
recorded_measurement: 1.66

seq: GCUGUCACCGAGAAACUGUGAAGUAUAUCUUAAACCUGGGCACUUAAAAGAUAUAUGGAGUUAGUAGUGCAACCUGCUCGGUCUGAUGAGUCCGUCGCAGGACGAAACAGC [GUCGCA]
recorded_measurement: 1.77

seq: GCUGUCACCGAGAAACUGUGAAGUAUAUCUUAAACCUGGGCACUUAAAAGAUAUAUGGAGUUAGUAGUGCAACCUGCUCGGUCUGAUGAGUCCAGCGAAGGACGAAACAGC [AGCGAA]
recorded_measurement: 1.41

seq: GCUGUCACCGAGAAACUGUGAAGUAUAUCUUAAACCUGGGCACUUAAAAGAUAUAUGGAGUUAGUAGUGCAACCUGCUCGGUCUGAUGAGUCCCACUUGGGACGAAACAGC [CACUUG]
recorded_measurement: 1.74

seq: GCUGUCACCGAGAAACUGUGAAGUAUAUCUUAAACCUGGGCACUUAAAAGAUAUAUGGAGUUAGUAGUGCAACCUGCUCGGUCUGAUGAGUCCUUGUCGGGACGAAACAGC [UUGUCG]
recorded_measurement: 1.79

seq: GCUGUCACCGAGAAACUGUGAAGUAUAUCUUAAACCUGGGCACUUAAAAGAUAUAUGGAGUUAGUAGUGCAACCUGCUCGGUCUGAUGAGUCCUGAUAUGGACGAAACAGC [UGAUAU]
recorded_measurement: 1.65

seq: GCUGUCACCGAGAAACUGUGAAGUAUAUCUUAAACCUGGGCACUUAAAAGAUAUAUGGAGUUAGUAGUGCAACCUGCUCGGUCUGAUGAGUCCCGUCUUGGACGAAACAGC [CGUCUU]
recorded_measurement: 1.49

seq: GCUGUCACCGAGAAACUGUGAAGUAUAUCUUAAACCUGGGCACUUAAAAGAUAUAUGGAGUUAGUAGUGCAACCUGCUCGGUCUGAUGAGUCCCUCGAUGGACGAAACAGC [CUCGAU]
recorded_measurement: 1.72

seq: GCUGUCACCGAGAAACUGUGAAGUAUAUCUUAAACCUGGGCACUUAAAAGAUAUAUGGAGUUAGUAGUGCAACCUGCUCGGUCUGAUGAGUCCGUGUCUGGACGAAACAGC [GUGUCU]
recorded_measurement: 1.72

seq: GCUGUCACCGAGAAACUGUGAAGUAUAUCUUAAACCUGGGCACUUAAAAGAUAUAUGGAGUUAGUAGUGCAACCUGCUCGGUCUGAUGAGUCCAGAUCUGGACGAAACAGC [AGAUCU]
recorded_measurement: 1.72

seq: GCUGUCACCGAGAAACUGUGAAGUAUAUCUUAAACCUGGGCACUUAAAAGAUAUAUGGAGUUAGUAGUGCAACCUGCUCGGUCUGAUGAGUCCAAUUGUGGACGAAACAGC [AAUUGU]
recorded_measurement: 1.66

seq: GCUGUCACCGAGAAACUGUGAAGUAUAUCUUAAACCUGGGCACUUAAAAGAUAUAUGGAGUUAGUAGUGCAACCUGCUCGGUCUGAUGAGUCCCAUGUCGGACGAAACAGC [CAUGUC]
recorded_measurement: 1.72

seq: GCUGUCACCGAGAAACUGUGAAGUAUAUCUUAAACCUGGGCACUUAAAAGAUAUAUGGAGUUAGUAGUGCAACCUGCUCGGUCUGAUGAGUCCCAAUCGGGACGAAACAGC [CAAUCG]
recorded_measurement: 1.77

seq: GCUGUCACCGAGAAACUGUGAAGUAUAUCUUAAACCUGGGCACUUAAAAGAUAUAUGGAGUUAGUAGUGCAACCUGCUCGGUCUGAUGAGUCCAUGUGAGGACGAAACAGC [AUGUGA]
recorded_measurement: 1.44

seq: GCUGUCACCGAGAAACUGUGAAGUAUAUCUUAAACCUGGGCACUUAAAAGAUAUAUGGAGUUAGUAGUGCAACCUGCUCGGUCUGAUGAGUCCUGUGUAGGACGAAACAGC [UGUGUA]
recorded_measurement: 1.61

seq: GCUGUCACCGAGAAACUGUGAAGUAUAUCUUAAACCUGGGCACUUAAAAGAUAUAUGGAGUUAGUAGUGCAACCUGCUCGGUCUGAUGAGUCCGGCACGGGACGAAACAGC [GGCACG]
recorded_measurement: 1.76
